Data origin, for the record: patent US20230286958A1

Lab note: pIC50 readings collected with human Factor XIa (Homo sapiens (Human)) for the following compounds.
Give bare numbers, as −log10 of the molar value.

| compound | pIC50 |
| --- | --- |
| CCc1nc(C(C)n2cc(NC(=O)c3cncc(-c4c(C(F)F)ccc(Cl)c4F)n3)cn2)cnc1N1C[C@H]2C[C@H]2C1=O (single isomer, unassigned) [Example 55] | 5.27 |

Exercise: Item Cc1cc(N2C[C@H]3C[C@H]3C2=O)nnc1Cn1cc(NC(=O)c2nc(-c3c(C(F)F)ccc(Cl)c3F)cnc2C)cn1 : provide pIC50
Key: 5.24

* * *

Target: human Factor XIa (Homo sapiens (Human), UniProt P03951)
Sequence (P03951 388-625 limits assumed): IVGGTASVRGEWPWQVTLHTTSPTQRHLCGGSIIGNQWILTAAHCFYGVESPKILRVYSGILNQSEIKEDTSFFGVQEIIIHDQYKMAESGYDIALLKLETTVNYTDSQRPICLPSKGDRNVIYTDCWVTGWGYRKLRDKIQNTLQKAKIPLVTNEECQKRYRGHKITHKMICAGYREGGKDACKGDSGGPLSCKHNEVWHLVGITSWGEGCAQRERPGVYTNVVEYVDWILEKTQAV
Sequence (P03951 19-387 partner limits assumed): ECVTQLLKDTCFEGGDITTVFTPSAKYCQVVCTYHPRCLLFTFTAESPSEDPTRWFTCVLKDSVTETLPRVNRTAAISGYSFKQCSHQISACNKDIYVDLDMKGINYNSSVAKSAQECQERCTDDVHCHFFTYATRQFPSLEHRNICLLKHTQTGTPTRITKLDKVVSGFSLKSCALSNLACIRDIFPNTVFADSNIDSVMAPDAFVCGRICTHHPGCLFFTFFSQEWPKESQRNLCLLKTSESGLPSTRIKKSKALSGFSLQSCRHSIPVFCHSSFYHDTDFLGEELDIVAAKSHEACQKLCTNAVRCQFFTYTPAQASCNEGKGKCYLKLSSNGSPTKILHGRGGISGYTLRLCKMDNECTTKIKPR
Field: IC50. Provide a value for each of the molecules that follow.

These solved cases illustrate the format of a correct answer.
| molecule | IC50 |
| --- | --- |
| O=C(Nc1cnn(Cc2ccc(N3C[C@H]4C[C@H]4C3=O)nc2)c1)c1cncc(-c2c(C(F)F)ccc(Cl)c2F)n1 [Example 9] | > 10 µM |
| Cc1ncc(-c2c(C(F)F)ccc(Cl)c2F)nc1C(=O)Nc1cnn(C(C)c2ccc(N3CC4CC4C3=O)nc2)c1 (single isomer, unassigned) [Example 76] | > 10 µM |

Shifting focus to the molecule that follows.
Exercise: Item Cc1c(C(C)n2cc(NC(=O)c3cncc(-c4c(OC(F)F)ccc(Cl)c4F)n3)cn2)cnc(N2C[C@H]3C[C@H]3C2=O)c1C (single isomer, unassigned) [Example 105] : provide IC50
Key: 0.101 µM
